Entry source: patent US20250154115A1

# studyTarget: IP6K1 (Homo sapiens (Human), UniProt Q92551)
# Sequence (Q92551 whole entry): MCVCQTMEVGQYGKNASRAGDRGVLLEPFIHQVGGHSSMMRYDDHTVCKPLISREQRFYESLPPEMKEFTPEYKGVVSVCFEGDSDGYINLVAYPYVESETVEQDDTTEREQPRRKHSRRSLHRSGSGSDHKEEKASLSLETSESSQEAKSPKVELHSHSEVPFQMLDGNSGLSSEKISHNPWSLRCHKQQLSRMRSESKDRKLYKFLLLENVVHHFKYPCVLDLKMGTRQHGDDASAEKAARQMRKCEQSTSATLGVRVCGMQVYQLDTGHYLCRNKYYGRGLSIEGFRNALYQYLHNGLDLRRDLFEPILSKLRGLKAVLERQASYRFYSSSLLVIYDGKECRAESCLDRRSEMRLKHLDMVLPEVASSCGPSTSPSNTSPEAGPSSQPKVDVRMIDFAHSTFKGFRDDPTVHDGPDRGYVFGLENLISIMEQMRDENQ
# test: Enzyme-coupled assay of IP6K1 activity (Dipp1-coupled, malachite green Pi release)
# Format: biochemical
# conditionInfo: determined from enzyme-coupled assays
pIC50: −log10 of the molar value.
measurementLabel: pIC50

Qu. Param readout = pIC50; param system = IP6K1 (Homo sapiens (Human), UniProt Q92551); param query = O=C(Nc1ccc(-c2onc3ccc(-c4noc(=O)[nH]4)cc23)cc1)C1CNC1 [Cmpd 137] ; response: value
Ans. 6.00 to 7.00

Qu. Param readout = pIC50; param system = IP6K1 (Homo sapiens (Human), UniProt Q92551); param query = O=C(Nc1ccc(-c2onc3ccc(-c4noc(=O)[nH]4)cc23)cc1)C1CCCC1 [Cmpd 130] ; response: value
Ans. > 8.00

Qu. Param readout = pIC50; param system = IP6K1 (Homo sapiens (Human), UniProt Q92551); param query = O=C(Nc1ccc(-c2onc3ccc(-c4noc(=O)[nH]4)cc23)cc1)C1CC1 [Cmpd 126] ; response: value
Ans. 6.00 to 7.00

Qu. Param readout = pIC50; param system = IP6K1 (Homo sapiens (Human), UniProt Q92551); param query = O=c1[nH]c(-c2ccc3noc(-c4ccccc4)c3c2)no1 [Cmpd 124] ; response: value
Ans. 6.00 to 7.00

Qu. Param readout = pIC50; param system = IP6K1 (Homo sapiens (Human), UniProt Q92551); param query = O=C(C1CC1)N1CCC(Oc2cccc(-c3onc4ccc(-c5noc(=O)[nH]5)cc34)c2)CC1 [Cmpd 138] ; response: value
Ans. 6.00 to 7.00
